# TGT: Neu5Ac(a2-6)Gal(b1-4)GlcNAc(b1-2)Man(a1-6)[GlcNAc(b1-2)Man(a1-3)]Man(b1-4)GlcNAc(b1-4)GlcNAc
# PROCEDURE_DETAILS: glycan array binding signal (z-score within array); higher = stronger binding
# RECORDED_CONDITIONS: glycan notation: IUPAC condensed, linker removed
This is one part of a sample in which the strongest signals are shown more often than they occur.
RECORDED_ENDPOINT: glycan array binding signal (z-score)

BINDER: CAA (Caragana arborescens) (protein) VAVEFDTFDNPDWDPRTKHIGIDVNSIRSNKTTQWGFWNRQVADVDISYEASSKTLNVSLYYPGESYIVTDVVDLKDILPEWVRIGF
MEASUREMENT: 5.95
--
BINDER: Gal 8 (Homo sapiens), O00214 (protein) MMLSLNNLQNIIYNPVIPFVGTIPDQLDPGTLIVIRGHVPSDADRFQVDLQNGSSMKPRADVAFHFNPRFKRAGCIVCNTLINEKWGREEITYDTPFKREKSFEIVIMVKDKFQVAVNGKHTLLYGHRIGPEKIDTLGIYGKVNIHSIGFSFSSDLQSTQASSLELTEISRENVPKSGTPQLPSNRGGDISKIAPRTVYTKSKDSTVNHTLTCTKIPPMNYVSKRLPFAARLNTPMGPGRTVVVKGEVNANAKSFNVDLLAGKSKDIALHLNPRLNIKAFVRNSFLQESWGEEERNITSFPFSPGMYFEMIIYCDVREFKVAVNGVHSLEYKHRFKELSSIDTLEINGDIHLLEVRSW
MEASUREMENT: -0.442
--
BINDER: ASAL (Allium sativum), P83886 (protein) MGRTTSSPKAMMRIATVAAILTILASTCMARNVLTNGEGLYAGQSLDVEQYKFIMQDDCNLVLYEYSTPIWASNTGVTGKNGCRAVMQRDGNFVVYDVNGRPVWASNSVRGNGNYILVLQKDRNVVIYGSDIWSTGTYRRSVGGAVVMAMNGTVDGGSVIGPVVVNQNVTAAIRKVGTGAA
MEASUREMENT: 5.01
--
BINDER: HPAIIITrx (Helix pomatia), Q1KM18 (protein) MLFVTIISLGLLAIVHGQCALKTIAFSAAIDREQTFDANQVVIYDIVITNHGNAYDNSTGLFTAPVDGMYSFQLNLLTIKEKEGWLELVHNGQLKVSVYAKQDSTYDSSSNSVIIKMKEGDRVNVRAHKKSGLFGRDDELYNTFSGHFLSGL
MEASUREMENT: -0.492
--
BINDER: GNL (Galanthus nivalis) (protein) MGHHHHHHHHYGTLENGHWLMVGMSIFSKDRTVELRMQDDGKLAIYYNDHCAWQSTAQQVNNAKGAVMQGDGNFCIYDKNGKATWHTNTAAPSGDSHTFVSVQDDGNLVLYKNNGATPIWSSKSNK
MEASUREMENT: 5.03
--
BINDER: HFR-3 (Triticum aestivum) (protein) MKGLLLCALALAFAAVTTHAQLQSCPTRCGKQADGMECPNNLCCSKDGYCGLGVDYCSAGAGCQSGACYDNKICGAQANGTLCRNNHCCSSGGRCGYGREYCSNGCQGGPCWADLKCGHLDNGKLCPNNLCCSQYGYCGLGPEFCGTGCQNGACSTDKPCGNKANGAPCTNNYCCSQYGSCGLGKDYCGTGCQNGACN
MEASUREMENT: -0.077
